- protocol details: physchem
- measurement conditions: octanol/water, pH 7.4
One threshold, 2, splits the recorded logD values: lower ones are met, equal or higher ones are not met.

Before answering, review these 5 worked examples.
# chemical smiles, label value
data = [
    ("CCCNc1cc(N2CCOCC2)cc(CCc2nc(C)c(CC)o2)n1", "not met"),
    ("CCc1oc(CCc2cc(N3CCOCC3)cc(NCC#N)n2)nc1C", "not met"),
    ("CCNc1cc(N2CCOCC2)cc(CCc2nc(C)c(CC)o2)n1", "not met"),
    ("Cc1nc(OCc2cc(N3CCOCC3)cc(NCC#N)n2)oc1C", "not met"),
    ("CCc1oc(CCc2cc(N3CCOCC3)cc(NC)n2)nc1C", "met"),
]

Attention now turns to another entry.
Decide: logD of CCOC(=O)CNc1cc(N2CCOCC2)cc(CCc2nc(C)c(CC)o2)n1 strictly below 2?
not met

====

- protocol details: physchem
- measurement conditions: octanol/water, pH 7.4
quantity: logD
Numbers only.

# chemical smiles, logD
data = [
    ("CCc1oc(CCc2cc(N3CCOCC3)cc(NCC(F)(F)F)n2)nc1C", 3.5),
    ("Cc1nc(SCc2cc(N3CCOCC3)cc(NCC#N)n2)oc1C", 2),
    ("Cc1nc(SCc2cc(N3CCOCC3)cc(NCC#N)n2)sc1C", 2.4),
    ("CCc1oc(CCc2cc(N3CCOCC3)cc(NCCC#N)n2)nc1C", 2),
    ("CCc1oc(CCc2cc(N3CCOCC3)cc(NC(C)=O)n2)nc1C", 2.3),
]

For every item in the list below, what is its measured logD?
1. CCc1oc(SCc2cc(N3CCOCC3)cc(NCC#N)n2)nc1C
2. Cc1nc(SCc2cc(N3CCOCC3)cc(NCC#N)n2)n(C)c1C
3. CCc1oc(CCc2cc(N3CCOCC3)cc(NC(C)C)n2)nc1C

1: 2.6; 2: 1; 3: 2.4

====

- protocol details: Plasma concentration in mdr1a deficient CF-1 mouse at 30 mg/kg, ip after 30 mins
- Type: ADME, organism-based
- Parameters: dose 30 mg/kg, route intraperitoneal
- measurement conditions: CF-1 (mdr1a deficient)
quantity: concentration at 0.5 h (µM)
Give bare numbers, in µM.

Name the recorded concentration at 0.5 h for Cc1nc(SCc2cc(N3CCOCC3)cc(NCC#N)n2)sc1C .
5.2

====

- protocol details: Ratio of drug level in brain to plasma in C57BL/6 mouse at 30 mg/kg, ip after 30 mins
- Type: ADME, organism-based, C57BL6
- Set-up: dose 30 mg/kg, route intraperitoneal
quantity: Kp at 0.5 h
One number for each entry.

What measured Kp at 0.5 h goes with Cc1nc(SCc2cc(N3CCOCC3)cc(NCC#N)n2)sc1C ?
0.27

Cited source for all entries: ChEMBL document CHEMBL1152970
